test: Peptide hydrogel formation, vial-inverting method; format: physicochemical; details: 120 mM peptide (highest tested) in ultrapure water; pH 6.5-8.5 (1 N NaOH), ultrasonication, standing 48 h; vial-inverting method; precipitate, sol, suspension = no gel
Where a SMILES comes first, the peptide text is derived from it.
Reported Endpoint: State

As a guide, the following entries are already answered.
Molecule	State
CC(C)C[C@H](N)C(=O)N[C@H](C(=O)N1CCC[C@H]1C(=O)N[C@@H](Cc1ccccc1)C(=O)O)C(C)C [LVPF] (H-LVPF-OH)	sol
CC(C)C[C@H](NC(=O)CN)C(=O)N[C@@H](CC(C)C)C(=O)N[C@@H](Cc1ccc(O)cc1)C(=O)O [GLLY] (H-GLLY-OH)	suspension
CC[C@H](C)[C@H](NC(=O)[C@H](Cc1ccccc1)NC(=O)[C@H](Cc1c[nH]c2ccccc12)NC(=O)[C@@H](N)CC(C)C)C(=O)O [LWFI] (H-LWFI-OH)	sol
C[C@@H](O)[C@H](NC(=O)[C@H](Cc1ccccc1)NC(=O)[C@H](Cc1c[nH]c2ccccc12)NC(=O)[C@@H](N)CS)C(=O)O [CWFT] (H-CWFT-OH)	suspension
CC(C)C[C@H](NC(=O)[C@@H](N)CC(C)C)C(=O)N[C@@H](CCCNC(=N)N)C(=O)N[C@@H](CCC(N)=O)C(=O)O [LLRQ] (H-LLRQ-OH)	suspension
CC[C@H](C)[C@H](N)C(=O)N[C@@H](Cc1c[nH]c2ccccc12)C(=O)N[C@H](C(=O)N[C@H](C(=O)O)[C@@H](C)CC)[C@@H](C)CC [IWII] (H-IWII-OH)	suspension
NC(=O)CC[C@H](NC(=O)[C@H](CCC(N)=O)NC(=O)[C@H](CCC(N)=O)NC(=O)[C@@H](N)CCC(N)=O)C(=O)O [QQQQ] (H-QQQQ-OH)	suspension
N[C@@H](Cc1c[nH]c2ccccc12)C(=O)N[C@@H](Cc1ccccc1)C(=O)N[C@@H](Cc1c[nH]cn1)C(=O)N1CCC[C@H]1C(=O)O [WFHP] (H-WFHP-OH)	sol
N[C@@H](Cc1c[nH]c2ccccc12)C(=O)N[C@@H](Cc1c[nH]c2ccccc12)C(=O)N[C@@H](Cc1c[nH]c2ccccc12)C(=O)N[C@@H](Cc1c[nH]c2ccccc12)C(=O)O [WWWW] (H-WWWW-OH)	suspension
C[C@@H](O)[C@H](N)C(=O)N[C@@H](CCCNC(=N)N)C(=O)N[C@@H](Cc1ccccc1)C(=O)N[C@@H](CO)C(=O)O [TRFS] (H-TRFS-OH)	suspension

Task: Identify State associated with the molecule N[C@@H](CO)C(=O)N[C@@H](CO)C(=O)N[C@@H](CO)C(=O)N[C@@H](CO)C(=O)O [SSSS] (H-SSSS-OH)
Result: suspension

Task: Identify State associated with the molecule CC(C)C[C@H](N)C(=O)N[C@@H](Cc1ccccc1)C(=O)N[C@@H](Cc1c[nH]c2ccccc12)C(=O)N[C@@H](CO)C(=O)O [LFWS] (H-LFWS-OH)
Result: gel

###

assay: Peptide hydrogel formation, vial-inverting method; type: physicochemical; conditions: concentration at which the state was recorded: lowest of 30, 60, 90, 120 mM that gave a gel; 120 mM for non-gelating peptides
Where a SMILES comes first, the peptide text is derived from it.
Reported Endpoint: Concentration (µM)
Give the quantity in µM, number only.

As a guide, the following entries are already answered.
Molecule	Quantity Unit	Concentration
CC(C)C[C@H](N)C(=O)N[C@H](C(=O)N[C@@H](Cc1c[nH]c2ccccc12)C(=O)N[C@@H](Cc1ccccc1)C(=O)O)C(C)C [LVWF] (H-LVWF-OH)	µM	90000
CC[C@H](C)[C@H](N)C(=O)N[C@@H](CC(C)C)C(=O)N[C@H](C(=O)N[C@H](C(=O)O)C(C)C)C(C)C [ILVV] (H-ILVV-OH)	µM	30000

Task: Identify Concentration associated with the molecule CC(C)[C@H](NC(=O)[C@@H]1CCCN1)C(=O)N[C@@H](Cc1ccccc1)C(=O)N[C@@H](Cc1ccc(O)cc1)C(=O)O [PVFY] (H-PVFY-OH)
Result: 30000

Task: Identify Concentration associated with the molecule CSCC[C@H](NC(=O)[C@H](CCSC)NC(=O)[C@H](Cc1ccccc1)NC(=O)[C@@H](N)Cc1c[nH]c2ccccc12)C(=O)O [WFMM] (H-WFMM-OH)
Result: 30000

Task: Identify Concentration associated with the molecule CC[C@H](C)[C@H](N)C(=O)N[C@H](C(=O)N[C@H](C(=O)N[C@H](C(=O)O)[C@@H](C)CC)[C@@H](C)CC)[C@@H](C)CC [IIII] (H-IIII-OH)
Result: 30000

Task: Identify Concentration associated with the molecule CC[C@H](C)[C@H](N)C(=O)N[C@@H](CCCNC(=N)N)C(=O)N[C@H](C(=O)N[C@@H](Cc1c[nH]c2ccccc12)C(=O)O)C(C)C [IRVW] (H-IRVW-OH)
Result: 120000

###

test: Peptide hydrogel formation, vial-inverting method; assay type: physicochemical; settings: concentration at which the state was recorded: lowest of 30, 60, 90, 120 mM that gave a gel; 120 mM for non-gelating peptides
Where a SMILES comes first, the peptide text is derived from it.
Reported Endpoint: Concentration (µM)
Give the quantity in µM, number only.

As a guide, the following entries are already answered.
Molecule	Concentration [µM]
CC[C@H](C)[C@H](NC(=O)[C@H](C)NC(=O)[C@@H](NC(=O)[C@@H](N)CC(C)C)C(C)C)C(=O)O [LVAI] (H-LVAI-OH)	60000
NCCCC[C@H](NC(=O)[C@H](Cc1ccccc1)NC(=O)[C@H](Cc1ccccc1)NC(=O)[C@@H](N)CCC(=O)O)C(=O)O [EFFK] (H-EFFK-OH)	120000
CC(C)C[C@H](NC(=O)[C@H](C)NC(=O)[C@@H](N)C(C)C)C(=O)N[C@H](C(=O)O)C(C)C [VALV] (H-VALV-OH)	120000
CC(C)C[C@H](NC(=O)CN)C(=O)N[C@@H](CC(C)C)C(=O)N[C@@H](Cc1ccc(O)cc1)C(=O)O [GLLY] (H-GLLY-OH)	120000
O=C(O)[C@@H]1CCCN1C(=O)[C@@H]1CCCN1C(=O)[C@@H]1CCCN1C(=O)[C@@H]1CCCN1 [PPPP] (H-PPPP-OH)	120000
CC[C@H](C)[C@H](NC(=O)[C@@H](NC(=O)[C@@H](NC(=O)[C@@H](N)Cc1c[nH]c2ccccc12)C(C)C)[C@@H](C)CC)C(=O)O [WVII] (H-WVII-OH)	60000

Task: Identify Concentration associated with the molecule N[C@@H](Cc1ccccc1)C(=O)N[C@@H](Cc1ccccc1)C(=O)N[C@@H](Cc1ccc(O)cc1)C(=O)N[C@@H](Cc1ccc(O)cc1)C(=O)O [FFYY] (H-FFYY-OH)
Result: 30000

Task: Identify Concentration associated with the molecule CSCC[C@H](NC(=O)[C@@H](N)CCSC)C(=O)N[C@@H](CC(C)C)C(=O)N[C@@H](CC(C)C)C(=O)O [MMLL] (H-MMLL-OH)
Result: 90000

Task: Identify Concentration associated with the molecule CC[C@H](C)[C@H](NC(=O)[C@@H]1CCCN1)C(=O)N[C@@H](Cc1ccccc1)C(=O)N[C@@H](Cc1ccc(O)cc1)C(=O)O [PIFY] (H-PIFY-OH)
Result: 30000

Task: Identify Concentration associated with the molecule N[C@@H](Cc1ccccc1)C(=O)N[C@@H](Cc1ccccc1)C(=O)N[C@@H](Cc1ccccc1)C(=O)N[C@@H](Cc1ccccc1)C(=O)O [FFFF] (H-FFFF-OH)
Result: 30000

Task: Identify Concentration associated with the molecule CC[C@H](C)[C@H](NC(=O)[C@@H](NC(=O)[C@H](C)N)C(C)C)C(=O)N[C@@H](CCC(N)=O)C(=O)O [AVIQ] (H-AVIQ-OH)
Result: 120000

Task: Identify Concentration associated with the molecule `CC(C)C[C@H](NC(=O)[C@H](CC(C)C)NC(=O)[C@@H](N)CCCCN)C(=O)N[C@@H](Cc1ccccc1)C(=O)O`
Result: 30000

Task: Identify Concentration associated with the molecule CSCC[C@H](NC(=O)[C@H](CCSC)NC(=O)[C@H](CCSC)NC(=O)[C@@H](N)CCSC)C(=O)O [MMMM] (H-MMMM-OH)
Result: 120000

Task: Identify Concentration associated with the molecule N[C@@H](CO)C(=O)N[C@@H](Cc1ccc(O)cc1)C(=O)N[C@@H](Cc1ccccc1)C(=O)N[C@@H](Cc1ccccc1)C(=O)O [SYFF] (H-SYFF-OH)
Result: 30000

Task: Identify Concentration associated with the molecule CC(C)C[C@H](N)C(=O)N[C@@H](CO)C(=O)N[C@@H](Cc1ccccc1)C(=O)N[C@@H](Cc1c[nH]c2ccccc12)C(=O)O [LSFW] (H-LSFW-OH)
Result: 60000

Task: Identify Concentration associated with the molecule CC[C@H](C)[C@H](NC(=O)[C@H](Cc1ccc(O)cc1)NC(=O)[C@H](Cc1ccc(O)cc1)NC(=O)[C@@H]1CCCN1)C(=O)O [PYYI] (H-PYYI-OH)
Result: 120000

Task: Identify Concentration associated with the molecule N[C@@H](Cc1c[nH]c2ccccc12)C(=O)N1CCC[C@H]1C(=O)N[C@@H](Cc1ccc(O)cc1)C(=O)N[C@@H](Cc1ccc(O)cc1)C(=O)O [WPYY] (H-WPYY-OH)
Result: 120000

Task: Identify Concentration associated with the molecule CC[C@H](C)[C@H](N)C(=O)N[C@@H](Cc1c[nH]cn1)C(=O)N[C@@H](Cc1ccccc1)C(=O)N[C@H](C(=O)O)C(C)C [IHFV] (H-IHFV-OH)
Result: 120000

Task: Identify Concentration associated with the molecule CC(C)C[C@H](NC(=O)[C@H](CO)NC(=O)[C@H](CC(C)C)NC(=O)[C@@H](N)CC(C)C)C(=O)O [LLSL] (H-LLSL-OH)
Result: 60000

Task: Identify Concentration associated with the molecule C[C@H](NC(=O)[C@@H](N)Cc1ccc(O)cc1)C(=O)N[C@@H](Cc1ccc(O)cc1)C(=O)N[C@@H](Cc1ccc(O)cc1)C(=O)O [YAYY] (H-YAYY-OH)
Result: 120000

Task: Identify Concentration associated with the molecule CC(C)C[C@H](NC(=O)[C@@H](N)CC(C)C)C(=O)N[C@@H](CCCNC(=N)N)C(=O)N[C@@H](CCC(N)=O)C(=O)O [LLRQ] (H-LLRQ-OH)
Result: 120000

Task: Identify Concentration associated with the molecule CC[C@H](C)[C@H](NC(=O)[C@@H](NC(=O)[C@@H](NC(=O)[C@@H](N)CC(C)C)C(C)C)[C@@H](C)CC)C(=O)O [LVII] (H-LVII-OH)
Result: 30000

Task: Identify Concentration associated with the molecule CC[C@H](C)[C@H](N)C(=O)N[C@H](C(=O)N[C@H](C(=O)N[C@@H](Cc1ccccc1)C(=O)O)[C@@H](C)CC)C(C)C [IVIF] (H-IVIF-OH)
Result: 30000

Task: Identify Concentration associated with the molecule CC[C@H](C)[C@H](NC(=O)[C@@H](NC(=O)[C@@H](NC(=O)[C@@H]1CCCN1)C(C)C)[C@@H](C)CC)C(=O)O [PVII] (H-PVII-OH)
Result: 90000

These data points were gathered from paper PMC10313671.
